# Method summary: Glutathione peroxidase (GPx)-like activity assay, coupled NADPH oxidation at 340 nm
# Assay type: biochemical
# Test conditions: peroxide Cum-OOH 1.6 mM; compound 50 μm; GSH 2.0 mM; pH 7.5; 25° C.
Assay endpoint: Initial rate v0, Cum-OOH (μm min^−1)
Give just the numeric value; μm min^−1 need not be written.

(Q) Bench note: what Initial rate v0, Cum-OOH did O=C1CCC(n2[se]c3cc(F)ccc3c2=O)C(=O)N1 (stereo not drawn) show?
(A) 142.2

(Q) Which value of Initial rate v0, Cum-OOH has been reported for O=C1CCC(n2[se]c3ccccc3c2=O)C(=O)N1 (stereo not drawn) in the records?
(A) 124.5

Here is another compound to look at.
(Q) If you can, please state the reported Initial rate v0, Cum-OOH value of `O=c1c2ccccc2[se]n1-c1nc2ccccc2s1` .
(A) 94.5

---

// endpoint IC50 / system Thioredoxin Reductase 1 (TrxR1) (Homo sapiens)

(Q) Query IC50 on Thioredoxin Reductase 1 (TrxR1) (Homo sapiens) for COc1ccc2[se]n(C3CCC(=O)NC3=O)c(=O)c2c1 (stereo not shown) [Compound 12]
(A) < 5 µM

---

# Method summary: Glutathione peroxidase (GPx)-like activity assay, coupled NADPH oxidation at 340 nm
# Assay type: biochemical
# Test conditions: peroxide tBuOOH 1.6 mM; compound 50 μm; GSH 2.0 mM; pH 7.5; 25° C.
Assay endpoint: Initial rate v0, tBuOOH
The reply should read as a number followed by its unit.

Use these answered entries as a reference point.
(Q) Initial rate v0, tBuOOH lookup needed for O=C1CCC(n2[se]c3ccccc3c2=O)C(=O)N1 (centres unmarked) [Compound 1] , thanks.
(A) 42.0 ± 3.3 μm min^−1

(Q) Query (compound): O=C1CCC(n2[se]c3cc(F)ccc3c2=O)C(=O)N1 (centres unmarked) [Compound 7] ; field requested: Initial rate v0, tBuOOH
(A) 49.3 ± 5.0 μm min^−1

Others:
(Q) I am curious: what Initial rate v0, tBuOOH value has been reported for O=c1c2ccccc2[se]n1C12CC3CC(CC(O)(C3)C1)C2 [Compound 19] ?
(A) 32.3 ± 3.5 μm min^−1

(Q) Sample COc1ccc2[se]n(C3CCC(=O)NC3=O)c(=O)c2c1 (centres unmarked) [Compound 12] — what was its Initial rate v0, tBuOOH?
(A) 54.5 ± 5.7 μm min^−1

(Q) Report Initial rate v0, tBuOOH for O=C1c2ccccc2[Se](=O)N1c1nc2ccc(OC(F)(F)F)cc2s1 (centres unmarked) [Compound 34] please.
(A) 14.2 ± 1.1 μm min^−1

(Q) What value of Initial rate v0, tBuOOH has been reported for the following compound? O=c1c2ccccc2[se]n1-c1nc2ccccc2s1 [Compound 21]
(A) 35.7 ± 4.2 μm min^−1

(Q) What value of measured Initial rate v0, tBuOOH is listed for O=C1CC(n2[se]c3cc(F)ccc3c2=O)C(=O)N1 (centres unmarked) [Compound 26] ?
(A) 55.7 ± 5.2 μm min^−1

(Q) Fill blank: measured Initial rate v0, tBuOOH of the compound O=C1c2ccccc2[Se](=O)N1C12CC3CC(CC(O)(C3)C1)C2 (centres unmarked) [Compound 32] is ____.
(A) 12.0 ± 2.3 μm min^−1

---

As shown below, each of these compounds has a reported Initial rate v0, Cum-OOH value.
# Method summary: Glutathione peroxidase (GPx)-like activity assay, coupled NADPH oxidation at 340 nm
# Assay type: biochemical
# Test conditions: peroxide Cum-OOH 1.6 mM; compound 50 μm; GSH 2.0 mM; pH 7.5; 25° C.
Write it as a number; the unit μm min^−1 goes unstated.

// below: answered compounds
(Q) Looking for the measured Initial rate v0, Cum-OOH of COc1ccc2[se]n(C3CCC(=O)NC3=O)c(=O)c2c1 (centres unmarked) , can you help?
(A) 116.8

(Q) Entry under review: O=C1CC(n2[se]c3cc(F)ccc3c2=O)C(=O)N1 (centres unmarked) . Reported Initial rate v0, Cum-OOH?
(A) 164.5

(Q) Fill in the blank: the reported Initial rate v0, Cum-OOH of O=C1c2ccccc2[Se](=O)N1c1nc2ccc(OC(F)(F)F)cc2s1 (centres unmarked) is ____.
(A) 12.4

(Q) // Initial rate v0, Cum-OOH lookup, key: O=C1c2ccccc2[Se](=O)N1C12CC3CC(CC(O)(C3)C1)C2 (centres unmarked)
(A) 11.5

# ---- query compound ----
(Q) Entry `O=c1c2ccccc2[se]n1C12CC3CC(CC(O)(C3)C1)C2` : reported Initial rate v0, Cum-OOH = ?
(A) 34.2

---

# Tested system: Thioredoxin Reductase 1 (TrxR1) (Homo sapiens, UniProt Q16881)
# Sequence (Q16881 151-649 limits assumed): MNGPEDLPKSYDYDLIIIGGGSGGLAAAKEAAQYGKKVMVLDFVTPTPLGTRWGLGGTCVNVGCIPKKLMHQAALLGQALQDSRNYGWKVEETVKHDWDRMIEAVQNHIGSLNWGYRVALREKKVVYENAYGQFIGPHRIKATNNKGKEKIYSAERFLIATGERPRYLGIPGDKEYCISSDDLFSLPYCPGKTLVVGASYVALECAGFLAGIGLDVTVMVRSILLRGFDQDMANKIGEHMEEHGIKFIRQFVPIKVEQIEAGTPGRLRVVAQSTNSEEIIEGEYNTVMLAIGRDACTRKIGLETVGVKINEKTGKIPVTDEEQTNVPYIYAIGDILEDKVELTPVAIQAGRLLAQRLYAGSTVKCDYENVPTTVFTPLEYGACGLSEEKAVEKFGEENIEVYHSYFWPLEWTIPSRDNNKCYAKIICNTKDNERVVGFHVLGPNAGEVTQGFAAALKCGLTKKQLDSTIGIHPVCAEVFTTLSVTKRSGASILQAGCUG
Each entry below carries its reported IC50.

(Q) If you can, please state the reported IC50 value of COc1cc2[se]n(C3CCC(=O)NC3=O)c(=O)c2cc1OC (stereo not shown) .
(A) < 5 µM

(Q) Return reported IC50; argument: `O=c1c2ccccc2[se]n1-c1nc2ccc(OC(F)(F)F)cc2s1`
(A) < 5 µM

(Q) Please look up its IC50: O=C1CCC(n2[se]c3cc(Cl)ccc3c2=O)C(=O)N1 (stereo not shown)
(A) 5 to 50 µM

Others:
(Q) Reported IC50 for N#Cc1cccc2c(=O)n(C3CCC(=O)NC3=O)[se]c12 (stereo not shown) : what is it?
(A) 5 to 50 µM

(Q) What value of measured IC50 is listed for O=C1CCC(n2[se]c3ccccc3c2=O)C(=O)N1 (stereo not shown) ?
(A) 5 to 50 µM

(Q) Fill in the blank: the reported IC50 of `CC1(C)S[C@@H]2[C@H](n3[se]c4ccccc4c3=O)C(=O)N2[C@H]1C(=O)O` is ____.
(A) < 5 µM

(Q) I have this compound here, CC(=O)Nc1cccc2c(=O)n(C3CCC(=O)NC3=O)[se]c12 (stereo not shown) , and I need its recorded IC50.
(A) 5 to 50 µM

---

# Method summary: Glutathione peroxidase (GPx)-like activity assay, coupled NADPH oxidation at 340 nm
# Assay type: biochemical
# Test conditions: peroxide H2O2 1.6 mM; compound 50 μm; GSH 2.0 mM; pH 7.5; 25° C.
Assay endpoint: Initial rate v0, H2O2 (μm min^−1)
Answer in μm min^−1, number only, no unit symbol.

Past entries and their recorded results:
(Q) # get_value(readout='Initial rate v0, H2O2', item= `O=c1c2ccccc2[se]n1-c1nc2ccccc2s1` )
(A) 115.3

(Q) Recorded Initial rate v0, H2O2 of O=C1c2ccccc2[Se](=O)N1C12CC3CC(CC(O)(C3)C1)C2 (centres unmarked) , please.
(A) 36.7

Next:
(Q) Which measured Initial rate v0, H2O2 value corresponds to COc1ccc2[se]n(C3CCC(=O)NC3=O)c(=O)c2c1 (centres unmarked) ?
(A) 121.7

---

# Tested system: Thioredoxin Reductase 1 (TrxR1) (Homo sapiens)
# Method summary: Thioredoxin reductase 1 (TrxR1) activity inhibiting assay, NADPH consumption at 340 nm
# Format: biochemical
# Test conditions: insulin/Trx/NADPH system, absorbance 340 nm; read-out: TrxR inhibition IC50
Assay endpoint: IC50

Would you please look over these solved cases?
(Q) Bench note: what IC50 did `COc1cccc2c(=O)n(-c3nc4ccc(OC(F)(F)F)cc4s3)[se]c12` show?
(A) < 5 µM

(Q) What value of IC50 has been recorded for this entry: O=C1CCC(n2[se]c3c(F)cccc3c2=O)C(=O)N1 (centres unmarked)
(A) < 5 µM

(Q) Entry O=C1c2ccccc2[Se](=O)N1c1nc2ccc(OC(F)(F)F)cc2s1 (centres unmarked) : reported IC50 = ?
(A) 50 to 100 µM

***
(Q) // lookup IC50 for `COc1ccc2nc(-n3[se]c4ccccc4c3=O)sc2c1`
(A) 5 to 50 µM

(Q) So what's the measured IC50 for this one? COc1cccc2c1[Se](=O)N(C1CCC(=O)NC1=O)C2=O (centres unmarked)
(A) 50 to 100 µM

---

pIC50: −log10 of the molar value.
Dear all, this message contains pIC50 results, target or system Thioredoxin Reductase 1 (TrxR1) (Homo sapiens).

Answered cases to consult:
(Q) Fill in the blank: the reported pIC50 of COc1ccc2[se]n(C3CC(=O)NC3=O)c(=O)c2c1 (stereo not drawn) is ____.
(A) 4.30 to 5.30

(Q) Form field: reported pIC50 of O=C1CCC(n2[se]c3ccc(F)cc3c2=O)C(=O)N1 (stereo not drawn)
(A) > 5.30

(Q) Please look up its pIC50: O=C1CCC(n2[se]c3c([N+](=O)[O-])cccc3c2=O)C(=O)N1 (stereo not drawn)
(A) 4.00 to 4.30

(Q) Looking for the measured pIC50 of COc1ccc2c(c1)CN(C1CCC(=O)NC1=O)[Se]2 (stereo not drawn) , can you help?
(A) 4.30 to 5.30

(Q) Requested field: pIC50. Item: O=c1c2ccccc2[se]n1-c1ccccc1 [Ebselen, reference compound]
(A) 4.00 to 4.30

(Q) Would you kindly share the measured pIC50 for O=C1CCC(n2[se]c3cccc([N+](=O)[O-])c3c2=O)C(=O)N1 (stereo not drawn) ?
(A) 4.30 to 5.30

(Q) Consider the compound `O=c1c2ccccc2[se]n1-c1nc2ccccc2s1` and give its measured pIC50.
(A) 4.30 to 5.30

(Q) Sample O=C1CCC(n2[se]c3cc(F)ccc3c2=O)C(=O)N1 (stereo not drawn) — what was its pIC50?
(A) > 5.30

Now look at this entry.
(Q) Entry O=C1CC(n2[se]c3c(F)cccc3c2=O)C(=O)N1 (stereo not drawn) : reported pIC50 = ?
(A) 4.30 to 5.30
